The origin of these recorded values is patent US20230050440A1.

Target: T1, monomeric human TIGIT (Sino Biological 10917-H08H) (human, UniProt Q495A1 22-138, biotinylated in the MSD-SET assay)
T1 construct: Bought protein; also called Human TIGIT monomer; Human TIGIT-His; not shown: His tag
T1 sequence: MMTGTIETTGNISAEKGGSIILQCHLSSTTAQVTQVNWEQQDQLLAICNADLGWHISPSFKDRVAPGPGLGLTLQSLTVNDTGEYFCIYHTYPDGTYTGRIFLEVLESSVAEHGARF
Assay: BLI (ForteBio Octet RED384), IgG on AHQ sensor, 100 nM antigen, 1:1 model
Entries and their Kd values follow.
Hi! Could you send only the number? It should be in nM, unit omitted.

For record Clone 18 (antibody, V domains shown, Fully human IgG produced in yeast) VH: QVQLVQSGAEVKKPGASVKVSCKASGYTFTSYYMSWVRQAPGQGLEWMGIINPSGGSTSYAQKFQGRVTMTRDTSTSTVYMELSSLRSEDTAVYYCARVRYGYADGMDVWGQGTTVTVSS VL: DIQMTQSPSSLSASVGDRVTITCRASQSISSYLNWYQQKPGKAPKLLIYGASSLQSGVPSRFSGSGSGTDFTLTISSLQPEDFATYYCQQVYHLPFTFGGGTKVEIK the listed Kd is 50.8

For record Clone 3 (antibody, V domains shown, Fully human IgG produced in yeast) VH: EVQLVESGGGLVQPGGSLRLSCAASGFTFSDHYMDWVRQAPGKGLEWVGRTRNKANSYTTEYAASVKGRFTISRDDSKNSLYLQMNSLKTEDTAVYYCARGQYYYGSSSRGYYYMDVWGQGTTVTVSS VL: EIVLTQSPGTLSLSPGERATLSCRASQSVRSSYLAWYQQKPGQAPRLLIYGASSRATGIPDRFSGSGSGTDFTLTISRLEPEDFAVYYCQQVGPPLTFGGGTKVEIK the listed Kd is 73.6

For record Clone 27 (antibody, V domains shown, Fully human IgG produced in yeast) VH: QVQLVQSGAEVKKPGASVKVSCKASGYTFTSYAISWVRQAPGQGLEWMGWISAYNGNTNYAQKLQGRVTMTTDTSTSTAYMELRSLRSDDTAVYYCARDLSSFWSGDVLGAFDIWGQGTMVTVSS VL: EIVMTQSPATLSVSPGERATLSCRASQSVSSNLAWYQQKPGQAPRLLIYGASTRATGIPARFSGSGSGTEFTLTISSLQSEDFAVYYCQQHANHITFGGGTKVEIK the listed Kd is 2.32
